Tested on: HCT-15
Reported values of GI50 for individual entries
Provide only the numeric value, understood in µM.

c1ccc(-c2cccc(-c3ccccn3)n2)nc1 [TERPYRIDINE] ... 0.407

Lookup: GI50 / HCT-15 / c1ccc2c(c1)cc(C1NCCc3nc[nH]c31)c1ccccc12 (stereo not given)
59.6

Lookup: GI50 / HCT-15 / `COc1ccc(C(=C(I)c2ccccc2)c2ccc(OC)cc2)cc1`
65.6

Lookup: GI50 / HCT-15 / COC(=O)C(C(=O)C(=O)Nc1c(Cl)cc([N+](=O)[O-])cc1Cl)c1csc(-n2nc(C3=CCCCC3)cc2-c2ccccc2)n1 (stereo not given)
36.2

Lookup: GI50 / HCT-15 / COc1cc(C2S/C(=C/c3ccccc3)C(=O)N2c2ccc(Cl)c(Cl)c2)cc(OC)c1OC (stereo not given)
18.7

Lookup: GI50 / HCT-15 / `COc1cc2c(c(OC)c1O)-c1ccc(OC)c(=O)cc1[C@@H](NC(=O)C(F)(F)F)CC2`
1.16

Lookup: GI50 / HCT-15 / `COc1ccc2c(=O)c(O)c(-c3ccc(OC)c(OC)c3)oc2c1`
3.5

Lookup: GI50 / HCT-15 / `CCOC(=O)c1nc2ccc(C(F)(F)F)cc2nc1Oc1cc(OC)c(OC)c(OC)c1`
72.9

Lookup: GI50 / HCT-15 / Nc1nc(N)c2c3c(cnc2n1)CC(c1ccccc1)CC3 (stereo not given)
4.04

Lookup: GI50 / HCT-15 / `CCCNC1=C2C[C@@H](C)C[C@@H](OC)[C@@H](OC(=O)CCCN)[C@H](C)/C=C(\C)[C@@H](OC(N)=O)[C@H](OC)/C=C\C=C(/C)C(=O)NC(=CC1=O)C2=O`
21.5

Lookup: GI50 / HCT-15 / `O=C1C=CC(=O)c2c1ccc1c3ccccc3n(-c3ccccc3)c21`
3.48

Lookup: GI50 / HCT-15 / `O=C(O)CC/C(=N\Nc1nsc2ccccc12)c1ccccc1`
36
